Assignment: determine reported pKi for the given molecules.
measured on: Neuronal acetylcholine receptor; alpha4/beta2 (Homo sapiens, UniProt P17787+P43681)
Sequence (P17787 whole entry): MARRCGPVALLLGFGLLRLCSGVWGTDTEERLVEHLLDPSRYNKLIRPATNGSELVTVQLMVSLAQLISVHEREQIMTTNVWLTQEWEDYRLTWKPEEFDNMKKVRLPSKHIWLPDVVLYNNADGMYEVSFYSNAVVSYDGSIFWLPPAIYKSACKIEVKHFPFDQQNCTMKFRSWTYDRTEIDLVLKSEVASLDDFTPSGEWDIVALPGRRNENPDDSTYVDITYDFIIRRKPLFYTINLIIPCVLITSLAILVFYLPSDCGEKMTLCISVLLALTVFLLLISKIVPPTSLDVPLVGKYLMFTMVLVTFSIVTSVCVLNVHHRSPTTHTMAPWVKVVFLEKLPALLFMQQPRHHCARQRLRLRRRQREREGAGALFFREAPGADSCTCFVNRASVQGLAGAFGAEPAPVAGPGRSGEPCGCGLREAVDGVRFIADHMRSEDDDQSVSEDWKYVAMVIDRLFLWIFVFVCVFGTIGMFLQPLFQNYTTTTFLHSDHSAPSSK
Sequence (P43681 whole entry): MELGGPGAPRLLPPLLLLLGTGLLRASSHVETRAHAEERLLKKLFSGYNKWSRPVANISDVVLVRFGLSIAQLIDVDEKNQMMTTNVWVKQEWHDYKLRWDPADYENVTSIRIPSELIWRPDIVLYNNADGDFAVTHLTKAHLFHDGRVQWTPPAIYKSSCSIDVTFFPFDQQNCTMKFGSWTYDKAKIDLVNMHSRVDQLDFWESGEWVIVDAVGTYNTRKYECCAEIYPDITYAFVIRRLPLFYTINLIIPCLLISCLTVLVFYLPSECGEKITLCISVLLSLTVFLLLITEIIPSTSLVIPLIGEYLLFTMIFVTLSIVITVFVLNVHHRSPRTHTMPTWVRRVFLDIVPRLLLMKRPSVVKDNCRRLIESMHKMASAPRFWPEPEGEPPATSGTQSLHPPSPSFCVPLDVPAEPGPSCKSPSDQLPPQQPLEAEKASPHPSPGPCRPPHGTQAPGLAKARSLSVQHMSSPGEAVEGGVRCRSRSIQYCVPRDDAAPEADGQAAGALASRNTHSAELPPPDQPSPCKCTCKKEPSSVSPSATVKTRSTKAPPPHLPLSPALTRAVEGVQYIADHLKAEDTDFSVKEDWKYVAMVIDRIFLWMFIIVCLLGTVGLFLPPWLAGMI
method summary: Displacement of [3H]-epibatidine from wild type human alpha4beta2 nAChR transfected in human Hela cell membranes preincubated for 5 mins followed by [3H]-epibatidine addition and measured after overnight incubation by liquid scintillation beta counter analysis
In plain terms, pKi is the concentration in mol/L turned into minus its base-10 logarithm.

Qu. Form: Entry = "CN1CCC[C@H]1[C@@H]1COc2ccccc2O1" | System = Neuronal acetylcholine receptor; alpha4/beta2 (Homo sapiens, UniProt P17787+P43681) | pKi = ____
Ans. 5.93

Qu. Item "CN1CCC[C@H]1[C@@H]1COc2ccc(N)cc2O1" with Neuronal acetylcholine receptor; alpha4/beta2 (Homo sapiens, UniProt P17787+P43681) - pKi?
Ans. 7.34

Qu. Field: pKi (Neuronal acetylcholine receptor; alpha4/beta2 (Homo sapiens, UniProt P17787+P43681)). Entry: "CN1CCC[C@H]1[C@@H]1COc2ccc(O)cc2O1"
Ans. 8.17

Qu. Look up pKi with Neuronal acetylcholine receptor; alpha4/beta2 (Homo sapiens, UniProt P17787+P43681) for this molecule: "CN1CCC[C@H]1[C@@H]1COc2ncccc2O1"
Ans. 6.94

Qu. Form entry - test system: Neuronal acetylcholine receptor; alpha4/beta2 (Homo sapiens, UniProt P17787+P43681); read-out: pKi; molecule: "CN1CCC[C@H]1[C@H]1COc2c(N)cccc2O1"
Ans. 6.43
